biological target: CD28 (Homo sapiens, UniProt P10747); assay: Jurkat/IL2 + CHO/OKT3 +/- PD-L1 reporter assay: PD-L1-dependent CD28 costimulation; type: cell-based; design: host or cells: Jurkat cells expressing an IL-2-luciferase reporter; settings: Table E13; Jurkat/IL2 + CHO/OKT3/PD-L1; 5.0 nM
Quantity name: Fold Increase over WT CD80-IgV-Fe

Below: 3 molecules and their reported Fold Increase over WT CD80-IgV-Fe.
Molecule: Q33R/E35D/M38I/M47L/V68M (protein, UniProt P33681 35-288, looked up, variant Q33R E35D M38I M47L V68M) T-lymphocyte activation …: VIHVTKEVKEVATLSCGHNVSVEELAQTRIYWRKDKKIVLTMMSGDLNIWPEYKNRTIFDITNNLSIMILALRPSDEGTYECVVLKYEKDAFKREHLAEVTLSVKADFPTPSISDFEIPTSNIRRIICSTSGGFPEPHLSWLENGEELNAINTTVSQDPETELYAVSSKLDFNMTTNHSFMCLIKYGHLRVNQTFNWNTTKQEHFPDNLLPSWAITLISVNGIFVICCLTYCFAPRCRERRRNERLRRESVRPV
Fold Increase over WT CD80-IgV-Fe: 0.4
//
Molecule: T13R/Q33R/E35D/M47L/V68M/L85M (protein, CD80 v382 ECD) VIHVTKEVKEVARLSCGHNVSVEELAQTRIYWRKDKKMVLTMMSGDLNIWPEYKNRTIFDITNNLSIMILALRPSDEGTYECVVMKYEKDAFKREHLAEVTLSVKADFPTPSISDFETPTSNIRRIICSTSGGFPEPHLSWLENGEELNAINTTVSQDPETELYAVSSKLDFNMTTNHSFMCLIKYGHLRVNQTFNWNTTKQEHFPDN
Fold Increase over WT CD80-IgV-Fe: 2.9
//
Molecule: H18Y/V22D/E35D/M47V/N48K/V68M (protein, UniProt P33681 35-288, looked up, variant H18Y V22D E35D M47V N48K V68M) T-lymphocyte activation …: VIHVTKEVKEVATLSCGYNVSDEELAQTRIYWQKDKKMVLTMMSGDVKIWPEYKNRTIFDITNNLSIMILALRPSDEGTYECVVLKYEKDAFKREHLAEVTLSVKADFPTPSISDFEIPTSNIRRIICSTSGGFPEPHLSWLENGEELNAINTTVSQDPETELYAVSSKLDFNMTTNHSFMCLIKYGHLRVNQTFNWNTTKQEHFPDNLLPSWAITLISVNGIFVICCLTYCFAPRCRERRRNERLRRESVRPV
Fold Increase over WT CD80-IgV-Fe: 2.7

Would you kindly look at the next entry?
Q: Specify Fold Increase over WT CD80-IgV-Fe for E35D/M47V/N48K/V68M/L85M (protein, UniProt P33681 35-288, looked up, variant E35D M47V N48K V68M L85M) T-lymphocyte activation …: VIHVTKEVKEVATLSCGHNVSVEELAQTRIYWQKDKKMVLTMMSGDVKIWPEYKNRTIFDITNNLSIMILALRPSDEGTYECVVMKYEKDAFKREHLAEVTLSVKADFPTPSISDFEIPTSNIRRIICSTSGGFPEPHLSWLENGEELNAINTTVSQDPETELYAVSSKLDFNMTTNHSFMCLIKYGHLRVNQTFNWNTTKQEHFPDNLLPSWAITLISVNGIFVICCLTYCFAPRCRERRRNERLRRESVRPV and stop.
Result: 3.0
